Recorded Ki for molecules tested on the protein given by its sequence, drawn from a number of studies.
Protein target, amino acids: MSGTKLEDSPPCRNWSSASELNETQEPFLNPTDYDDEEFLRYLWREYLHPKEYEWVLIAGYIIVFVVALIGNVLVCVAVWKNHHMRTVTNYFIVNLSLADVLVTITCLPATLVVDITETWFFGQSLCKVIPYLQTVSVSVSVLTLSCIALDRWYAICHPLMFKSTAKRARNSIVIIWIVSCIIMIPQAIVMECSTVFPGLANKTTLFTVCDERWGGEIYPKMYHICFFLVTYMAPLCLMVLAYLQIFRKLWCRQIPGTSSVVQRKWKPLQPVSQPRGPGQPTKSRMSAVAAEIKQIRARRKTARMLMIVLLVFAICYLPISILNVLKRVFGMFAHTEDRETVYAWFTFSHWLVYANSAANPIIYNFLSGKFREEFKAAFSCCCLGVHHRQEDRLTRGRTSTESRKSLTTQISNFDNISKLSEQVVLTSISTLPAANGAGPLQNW
parameter: Ki (nM)

// known answers, use as guide
Cn1c(SCC(=O)N2CCC[C@H]2C(=O)Nc2ccccc2-n2cccc2)nc2ccccc21: 0.3
COC(=O)c1cccnc1N[C@@H]1CC[C@@H](C)N(C(=O)c2ccccc2-n2nccn2)C1: 0.4

[I] CCn1cc(OC[C@@]2(c3ccccc3)C[C@H]2C(=O)Nc2ccc(C#N)cn2)c(C)n1
[II] O=C(c1ccccc1-n1nccn1)N1CCC(F)(F)C(Oc2nc3ccccc3s2)C1 (centres undefined)
[III] O=C1c2cc(ccc2-n2nccn2)CCCCCCc2ccc3cc(ccc3c2)N2CCCN1CC2
Request: Sort the 3 molecules by Ki; largest first, smallest last. Answer by listing the labels in the order asked for.
Result: II, III, I

[a] COc1ccc(CNC(=O)c2cc(-c3cncc(C)c3)ncc2-c2ccccc2F)nc1OC
[b] Cc1ccc(-n2nccn2)c(C(=O)N2CC3CC2CCN3c2ncc3cc(F)ccc3n2)c1 (racemic)
[c] Cc1ccc(-n2nccn2)c(C(=O)N2C[C@H](/C=C/c3ccc(F)cn3)CC[C@H]2C)c1
Request: Sort the 3 molecules by Ki; largest first, smallest last. Answer by listing the labels in the order asked for.
Result: b, c, a
